- targetOrSystem: Protein polybromo-1 (Homo sapiens, UniProt Q86U86)
- Sequence (Q86U86 whole entry, canonical isoform): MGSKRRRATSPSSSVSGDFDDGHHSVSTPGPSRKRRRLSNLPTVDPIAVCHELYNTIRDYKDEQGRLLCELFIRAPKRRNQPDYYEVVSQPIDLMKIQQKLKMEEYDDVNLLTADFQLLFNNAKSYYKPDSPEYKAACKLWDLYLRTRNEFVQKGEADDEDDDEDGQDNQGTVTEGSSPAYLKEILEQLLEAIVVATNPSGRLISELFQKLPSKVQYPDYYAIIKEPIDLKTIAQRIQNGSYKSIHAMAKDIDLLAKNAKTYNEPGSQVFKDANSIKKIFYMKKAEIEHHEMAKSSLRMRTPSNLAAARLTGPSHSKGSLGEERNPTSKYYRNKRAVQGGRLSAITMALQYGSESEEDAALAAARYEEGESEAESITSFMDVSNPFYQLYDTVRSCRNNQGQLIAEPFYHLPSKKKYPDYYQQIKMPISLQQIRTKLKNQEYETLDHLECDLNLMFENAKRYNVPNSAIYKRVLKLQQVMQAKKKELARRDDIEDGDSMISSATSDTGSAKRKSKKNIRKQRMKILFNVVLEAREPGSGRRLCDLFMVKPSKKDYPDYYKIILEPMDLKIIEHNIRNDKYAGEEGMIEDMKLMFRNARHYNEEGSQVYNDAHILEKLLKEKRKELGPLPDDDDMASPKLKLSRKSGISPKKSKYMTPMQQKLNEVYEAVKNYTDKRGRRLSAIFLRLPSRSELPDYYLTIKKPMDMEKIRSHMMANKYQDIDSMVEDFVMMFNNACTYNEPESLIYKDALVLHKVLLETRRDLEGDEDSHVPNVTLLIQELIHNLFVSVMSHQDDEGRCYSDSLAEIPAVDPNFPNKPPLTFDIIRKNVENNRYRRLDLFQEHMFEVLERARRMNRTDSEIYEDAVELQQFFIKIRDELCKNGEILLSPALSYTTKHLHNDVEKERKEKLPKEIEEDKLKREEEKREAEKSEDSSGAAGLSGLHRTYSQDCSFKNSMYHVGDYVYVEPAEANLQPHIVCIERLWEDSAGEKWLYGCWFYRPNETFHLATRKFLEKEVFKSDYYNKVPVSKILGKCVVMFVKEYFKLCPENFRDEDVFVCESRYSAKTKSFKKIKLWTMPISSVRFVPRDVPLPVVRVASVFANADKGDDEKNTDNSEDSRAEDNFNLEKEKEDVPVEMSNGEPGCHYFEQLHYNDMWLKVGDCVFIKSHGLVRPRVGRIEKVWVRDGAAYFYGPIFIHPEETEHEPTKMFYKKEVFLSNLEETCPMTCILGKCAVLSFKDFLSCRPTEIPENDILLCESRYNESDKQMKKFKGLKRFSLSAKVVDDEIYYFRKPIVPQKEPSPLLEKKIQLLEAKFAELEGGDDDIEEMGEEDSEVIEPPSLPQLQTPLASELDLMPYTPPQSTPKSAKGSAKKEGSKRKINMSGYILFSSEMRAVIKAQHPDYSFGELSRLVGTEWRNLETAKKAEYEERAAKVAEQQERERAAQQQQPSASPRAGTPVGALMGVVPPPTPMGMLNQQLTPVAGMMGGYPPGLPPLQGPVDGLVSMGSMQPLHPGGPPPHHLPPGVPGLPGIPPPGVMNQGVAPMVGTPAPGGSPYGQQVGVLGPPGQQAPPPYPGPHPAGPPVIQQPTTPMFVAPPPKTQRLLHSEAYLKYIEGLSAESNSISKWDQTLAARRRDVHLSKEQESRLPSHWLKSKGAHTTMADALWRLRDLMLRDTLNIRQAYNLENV
- assayNotes: Binding affinity to human PB1 isoform 5 expressed in BL21 (DE3)-R3-BirA cells assessed as change in melting temperature at 10 uM by sypro-orange dye-based differential scanning fluorimetric analysis
- Format: cell-based
Reported ΔTm by item:
endpointName: ΔTm (°C)

# structureAsSmiles, endpointName, number
data = [
    ("O=C(/C=C/N1CC2CCC(CC2)C1)c1ccccc1O", "ΔTm", 6.6),
    ("CC(C)(C)c1nc2c(n1CC1CC1)CCN(/C=C/C(=O)c1ccccc1O)C2", "ΔTm", 8),
    ("O=C(/C=C/N1CCc2c(ccnc2N[C@H]2CC[C@H](O)CC2)C1)c1ccccc1O", "ΔTm", 8.3),
    ("CN(C)c1ncnc2c1CCN(/C=C/C(=O)c1ccccc1O)C2", "ΔTm", 5.1),
    ("O=C(/C=C/N1CCN(c2ncccn2)CC1)c1ccccc1O", "ΔTm", 4.6),
    ("O=C(/C=C/N1CCN(c2cccc(OCc3ccncc3)n2)CC1)c1ccccc1O", "ΔTm", 7),
    ("COc1cccc(C(=O)/C=C/N2CCCC2)c1O", "ΔTm", 0.4),
    ("CN(C)/C=C/C(=O)c1ccccc1O", "ΔTm", 4.9),
    ("O=C(/C=C/N1CCc2c(ncnc2NC2CC2)C1)c1ccccc1O", "ΔTm", 9.1),
    ("O=C(/C=C/N1[C@H]2CC[C@@H]1c1ncnc(NC3CC3)c1C2)c1ccccc1O", "ΔTm", 9.3),
    ("C#CCNc1ccnc(N2C[C@H]3C[C@@H]2CN3/C=C/C(=O)c2cccc(OC)c2O)n1", "ΔTm", -0.4),
]

###

Reported ΔTm values for a set of compounds
- targetOrSystem: Protein polybromo-1 (Homo sapiens)
- assayNotes: Binding affinity to human PB1 isoform 2 expressed in BL21 (DE3)-R3-BirA cells assessed as change in melting temperature at 10 uM by sypro-orange dye-based differential scanning fluorimetric analysis
- Type: cell-based

# structureAsSmiles, ΔTm [°C]
data = [
    ("CN(C)c1ncnc2c1CCN(/C=C/C(=O)c1ccccc1O)C2", 3.5),
    ("O=C(/C=C/N1CCc2c(ncn2Cc2ccccc2)C1)c1ccccc1O", 4.6),
    ("O=C(/C=C/N1CCN(c2cccc(OCc3ccncc3)n2)CC1)c1ccccc1O", 0.9),
    ("O=C(/C=C/N1CCC(c2cc[nH]n2)CC1)c1ccccc1O", 3.2),
    ("COc1cccc(C(=O)/C=C/N2CCCC2)c1O", 0.1),
    ("O=C(/C=C/N1CCc2c(ncnc2NC2CC2)C1)c1ccccc1O", 6.7),
]

###

Each record here notes measured ΔTm.
- targetOrSystem: Protein polybromo-1 (Homo sapiens, UniProt Q86U86)
- assayNotes: Binding affinity to human PB1 isoform 2 expressed in BL21 (DE3)-R3-BirA cells assessed as change in melting temperature at 10 uM by sypro-orange dye-based differential scanning fluorimetric analysis
- Assay type: cell-based

# structureAsSmiles, ΔTm (°C)
rows = [
    ("CC(C)(C)c1nc2c(n1CC1CC1)CCN(/C=C/C(=O)c1ccccc1O)C2", 3.8),
    ("CN(C)/C=C/C(=O)c1ccccc1O", 2),
    ("O=C(/C=C/N1CC2CCC(CC2)C1)c1ccccc1O", 5.2),
]

###

Listed below: ΔTm values for each entry.
- targetOrSystem: Protein polybromo-1 (Homo sapiens, UniProt Q86U86)
- assayNotes: Binding affinity to human PB1 isoform 5 expressed in BL21 (DE3)-R3-BirA cells assessed as change in melting temperature at 10 uM by sypro-orange dye-based differential scanning fluorimetric analysis
- Assay type: cell-based

# structureAsSmiles, targetOrSystem, ΔTm (°C)
rows = [
    ("O=C(/C=C/N1CCc2c(ncn2Cc2ccccc2)C1)c1ccccc1O", "Protein polybromo-1 (Homo sapiens, UniProt Q86U86)", 8),
    ("O=C(/C=C/N1CCc2cn[nH]c2C1)c1ccccc1O", "Protein polybromo-1 (Homo sapiens, UniProt Q86U86)", 7.8),
    ("CC(C)(C)OC(=O)N1CCN(/C=C/C(=O)c2ccccc2O)C2(CC2)C1", "Protein polybromo-1 (Homo sapiens, UniProt Q86U86)", 7.6),
    ("O=C(/C=C/N1CCCC1)c1ccccc1O", "Protein polybromo-1 (Homo sapiens, UniProt Q86U86)", 5.7),
    ("O=C(/C=C/N1CCC(c2cc[nH]n2)CC1)c1ccccc1O", "Protein polybromo-1 (Homo sapiens, UniProt Q86U86)", 6.9),
]

###

// reported ΔTm per item
- targetOrSystem: Protein polybromo-1 (Homo sapiens)
- assayNotes: Binding affinity to human PB1 isoform 2 expressed in BL21 (DE3)-R3-BirA cells assessed as change in melting temperature at 10 uM by sypro-orange dye-based differential scanning fluorimetric analysis
- Type: cell-based

# structureAsSmiles, ΔTm (°C)
data = [
    ("O=C(/C=C/N1[C@H]2CC[C@@H]1c1ncnc(NC3CC3)c1C2)c1ccccc1O", 5.9),
    ("O=C(/C=C/N1CCc2c(ccnc2N[C@H]2CC[C@H](O)CC2)C1)c1ccccc1O", 2.5),
    ("O=C(/C=C/N1CCc2cn[nH]c2C1)c1ccccc1O", 4.1),
    ("O=C(/C=C/N1CCCC1)c1ccccc1O", 2.3),
    ("O=C(/C=C/N1CCN(c2ncccn2)CC1)c1ccccc1O", 0.7),
    ("CC(C)(C)OC(=O)N1CCN(/C=C/C(=O)c2ccccc2O)C2(CC2)C1", 2.2),
]

###

- targetOrSystem: SWI/SNF-related matrix-associated actin-dependent regulator of chromatin subfamily A member 2 (Homo sapiens, UniProt P51531)
- Sequence (P51531 whole entry): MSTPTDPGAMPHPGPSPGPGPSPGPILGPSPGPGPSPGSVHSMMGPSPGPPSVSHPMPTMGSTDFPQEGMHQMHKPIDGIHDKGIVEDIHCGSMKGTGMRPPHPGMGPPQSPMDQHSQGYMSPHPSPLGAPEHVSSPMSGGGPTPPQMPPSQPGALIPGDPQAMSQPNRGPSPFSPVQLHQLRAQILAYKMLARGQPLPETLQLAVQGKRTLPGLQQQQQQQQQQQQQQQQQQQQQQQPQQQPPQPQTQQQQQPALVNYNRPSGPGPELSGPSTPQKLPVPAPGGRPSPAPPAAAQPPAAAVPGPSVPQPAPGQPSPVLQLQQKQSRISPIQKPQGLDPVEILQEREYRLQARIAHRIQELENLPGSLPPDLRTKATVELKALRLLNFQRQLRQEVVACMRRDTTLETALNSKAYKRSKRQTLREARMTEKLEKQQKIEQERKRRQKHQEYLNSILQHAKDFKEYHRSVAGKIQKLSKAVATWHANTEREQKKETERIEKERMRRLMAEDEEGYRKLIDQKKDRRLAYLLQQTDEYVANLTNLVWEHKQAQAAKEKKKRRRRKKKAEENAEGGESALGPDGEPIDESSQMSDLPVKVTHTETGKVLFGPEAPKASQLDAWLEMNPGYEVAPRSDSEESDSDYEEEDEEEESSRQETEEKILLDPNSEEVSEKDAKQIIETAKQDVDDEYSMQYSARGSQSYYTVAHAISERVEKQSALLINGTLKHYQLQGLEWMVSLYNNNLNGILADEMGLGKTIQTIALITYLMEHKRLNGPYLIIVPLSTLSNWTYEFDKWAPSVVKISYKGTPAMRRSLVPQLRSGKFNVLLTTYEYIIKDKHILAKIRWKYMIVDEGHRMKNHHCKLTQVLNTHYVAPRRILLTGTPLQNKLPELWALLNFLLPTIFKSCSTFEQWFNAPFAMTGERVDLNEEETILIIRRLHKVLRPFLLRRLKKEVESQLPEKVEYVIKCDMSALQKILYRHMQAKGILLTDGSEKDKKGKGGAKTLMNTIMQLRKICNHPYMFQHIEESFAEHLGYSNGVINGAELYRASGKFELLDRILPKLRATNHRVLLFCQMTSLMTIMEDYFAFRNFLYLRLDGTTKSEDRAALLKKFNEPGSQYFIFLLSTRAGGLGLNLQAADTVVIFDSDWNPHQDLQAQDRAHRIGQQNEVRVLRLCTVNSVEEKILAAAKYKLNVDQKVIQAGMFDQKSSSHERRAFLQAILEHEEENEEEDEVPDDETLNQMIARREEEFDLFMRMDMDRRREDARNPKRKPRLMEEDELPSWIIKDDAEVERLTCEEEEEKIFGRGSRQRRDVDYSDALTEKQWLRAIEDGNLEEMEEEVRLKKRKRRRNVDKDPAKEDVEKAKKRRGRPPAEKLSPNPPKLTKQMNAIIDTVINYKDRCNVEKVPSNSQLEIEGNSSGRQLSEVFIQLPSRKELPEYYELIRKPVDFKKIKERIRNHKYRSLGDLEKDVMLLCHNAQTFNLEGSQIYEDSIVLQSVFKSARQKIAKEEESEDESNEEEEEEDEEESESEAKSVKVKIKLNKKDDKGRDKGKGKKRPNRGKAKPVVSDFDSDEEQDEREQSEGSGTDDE
- assayNotes: Binding affinity to human SMARC2A expressed in BL21 (DE3)-R3-BirA cells assessed as change in melting temperature at 10 uM by sypro-orange dye-based differential scanning fluorimetric analysis
- Type: cell-based
Each record's class is read off its ΔTm using these ranges: lo (below 5 °C), mid (5 °C to below 6 °C), hi (6 °C or more)

# structureAsSmiles, label
records = [
    ("O=C(/C=C/N1CCc2c(ccnc2N[C@H]2CC[C@H](O)CC2)C1)c1ccccc1O", "mid"),
    ("C#CCNc1ccnc(N2C[C@H]3C[C@@H]2CN3/C=C/C(=O)c2cccc(OC)c2O)n1", "lo"),
    ("COc1cccc(C(=O)/C=C/N2CCCC2)c1O", "lo"),
    ("CC(C)(C)OC(=O)N1CCN(/C=C/C(=O)c2ccccc2O)C2(CC2)C1", "hi"),
    ("O=C(/C=C/N1CCc2c(ncn2Cc2ccccc2)C1)c1ccccc1O", "mid"),
    ("O=C(/C=C/N1[C@H]2CC[C@@H]1c1ncnc(NC3CC3)c1C2)c1ccccc1O", "hi"),
    ("CN(C)c1ncnc2c1CCN(/C=C/C(=O)c1ccccc1O)C2", "lo"),
    ("CN(C)/C=C/C(=O)c1ccccc1O", "lo"),
    ("O=C(/C=C/N1CCc2cn[nH]c2C1)c1ccccc1O", "hi"),
]

###

- targetOrSystem: Protein polybromo-1 (Homo sapiens, UniProt Q86U86)
- assayNotes: Binding affinity to human PB1 isoform 2 expressed in BL21 (DE3)-R3-BirA cells by isothermal titration Calorimetry

# structureAsSmiles, targetOrSystem, Kd / nM
rows = [
    ("O=C(/C=C/N1CCc2c(ncnc2NC2CC2)C1)c1ccccc1O", "Protein polybromo-1 (Homo sapiens, UniProt Q86U86)", 152),
]

###

The following compounds are listed with their measured ΔTm values.
- targetOrSystem: SWI/SNF-related matrix-associated actin-dependent regulator of chromatin subfamily A member 2 (Homo sapiens)
- assayNotes: Binding affinity to human SMARC2B expressed in BL21 (DE3)-R3-BirA cells assessed as change in melting temperature at 10 uM by sypro-orange dye-based differential scanning fluorimetric analysis
- Format: cell-based
endpointName: ΔTm (°C)

# structureAsSmiles, endpointName, number
measured = [
    ("CC(C)(C)OC(=O)N1CCN(/C=C/C(=O)c2ccccc2O)C2(CC2)C1", "ΔTm", 4.1),
    ("O=C(/C=C/N1CCc2c(ccnc2N[C@H]2CC[C@H](O)CC2)C1)c1ccccc1O", "ΔTm", 2.4),
    ("O=C(/C=C/N1CCC(c2cc[nH]n2)CC1)c1ccccc1O", "ΔTm", 3.9),
    ("O=C(/C=C/N1CC2CCC(CC2)C1)c1ccccc1O", "ΔTm", 2),
    ("C#CCNc1ccnc(N2C[C@H]3C[C@@H]2CN3/C=C/C(=O)c2cccc(OC)c2O)n1", "ΔTm", -0.4),
    ("O=C(/C=C/N1CCc2c(ncn2Cc2ccccc2)C1)c1ccccc1O", "ΔTm", 3),
    ("COc1cccc(C(=O)/C=C/N2CCCC2)c1O", "ΔTm", -0.4),
    ("O=C(/C=C/N1CCN(c2ncccn2)CC1)c1ccccc1O", "ΔTm", 1.1),
]

FYI, the data here is from ChEMBL document CHEMBL3817768.
